Test: yeast display, Sf9 membrane polyspecificity reagent, FACS + sequencing; frameworks hold sequencing errors
Readout: polyreactivity (PSR sort gate)

QVQLVESGGGLVQAGGSLRLSCAASGRTFLGYSMGWYRQAPAKERELVAAISGSCDRTYYADSVKGRFTISRDNAKHTVYLQMYSLKPEYTEVYYCNAVTVRYYASYYGRGMDYWGQGTQETVSS high polyreactivity
QVQLVESGGGLVQAGGSLRLSCAASGIIFTDYAMGWDRQAPGKERELVAAISSGGGSTYYADSVKGRFTISRDNAKNTVYIQLNSQKPEDTAVYYCAAEGYLISGACDYLYDYYWGQGTQVTVSS high polyreactivity
QVQLVETGGGLVQAGGTLRLSCAPSGRIFPYNDMGLYRQAPGKERELVAANSSGGTTDYADSVKGRFTISRDNAKNTVYLQMNSLKPEDTAVYYCAATYVYWTWGYDYWGQGTQVTVSS low polyreactivity
QVQLVESGGGLVQAGGSLRLSCAASGNIFFGNTMGWYRQAPGKERELVAAISRSGGSTYYADSVKGRFTISRDNAKNTVYLQMNSLKPEDTAVYYCAAEYYGWPYDSWGQGTQVTVSS high polyreactivity

# input for lookup
Task item: Returns the measured polyreactivity (PSR sort gate) for the input sequence. Input: "QVQLVESGGGLVQAGGSLRLICAASGSIFHIYMGWYRQAPGKEMEVVASISYRGGTTYYADSVKGRFTISRDNAKNSVYFQMNSLKPEDTAVYYCNVDRYFYHYGRYGHMDYWGQATQVTVSS"
Reply: low polyreactivity
